test: Binding affinity to biotin labelled 5'-CGAATTCGTCTCCGAATTCG-3' hairpin dsDNA (unknown origin) immobilized on biosensor chip by surface plasmon resonance analysis; set-up: species or system Homo sapiens
The molecules listed here are annotated with their Kd.
Measure: Kd

Compound structure: c1cc(NC2=NCCN2)ccc1CCc1ccc(NC2=NCCN2)cc1
Result: 2.78 µM
--
Compound structure: [O-][N+]1=C(Nc2ccc(CCc3ccc(NC4=[N+]([O-])CCN4)cc3)cc2)NCC1
Result: 0.87 µM
--
Compound structure: O=C(Nc1ccc(NC2=[N+]([O-])CCN2)cc1)c1ccc(NC2=[N+]([O-])CCN2)cc1
Result: 0.077 µM
--
Compound structure: [O-][N+]1=C(Nc2ccc(Nc3cccc(NC4=[N+]([O-])CCN4)c3)cc2)NCC1
Result: 0.568 µM
--
Compound structure: CCO[N+]1=C(Nc2ccc(CCc3ccc(NC4=[N+](OCC)CCN4)cc3)cc2)NCC1
Result: > 29 µM
--
Compound structure: O=C(Nc1ccc(NC2=NCCN2)cc1)c1ccc(NC2=NCCN2)cc1
Result: 0.166 µM
--
Compound structure: O=C(Nc1ccc(NC2=NCCN2)cc1)Nc1ccc(NC2=NCCN2)cc1
Result: 11.6 µM
--
Compound structure: c1cc(NC2=NCCN2)cc(Nc2ccc(NC3=NCCN3)cc2)c1
Result: 2.7 µM
--
Compound structure: CO[N+]1=C(Nc2ccc(NC(=O)c3ccc(NC4=[N+](OC)CCN4)cc3)cc2)NCC1
Result: 0.256 µM
--
Compound structure: CC/N=C(\N)Nc1ccc(NC(=O)Nc2ccc(N/C(N)=N/CC)cc2)cc1
Result: > 29 µM

###

The molecules listed here are annotated with their pKd.
assay: Binding affinity to biotin labelled 5'-CATATATATCCCCATATATATG-3' hairpin dsDNA (unknown origin) immobilized on biosensor chip by surface plasmon resonance analysis; set-up: species or system Homo sapiens
pKd: −log10 of the molar value.
Measure: pKd

Compound structure: c1cc(NC2=NCCN2)ccc1CCc1ccc(NC2=NCCN2)cc1
Censoring qualifier: =
Result: 5.36
//
Compound structure: O=C(Nc1ccc(NC2=NCCN2)cc1)c1ccc(NC2=NCCN2)cc1
Censoring qualifier: =
Result: 6.51
//
Compound structure: [O-][N+]1=C(Nc2ccc(Nc3cccc(NC4=[N+]([O-])CCN4)c3)cc2)NCC1
Censoring qualifier: =
Result: 5.75
//
Compound structure: [O-][N+]1=C(Nc2ccc(CCc3ccc(NC4=[N+]([O-])CCN4)cc3)cc2)NCC1
Censoring qualifier: =
Result: 5.40
//
Compound structure: CCO[N+]1=C(Nc2ccc(CCc3ccc(NC4=[N+](OCC)CCN4)cc3)cc2)NCC1
Censoring qualifier: <
Result: 4.54
//
Compound structure: O=C(Nc1ccc(NC2=NCCN2)cc1)Nc1ccc(NC2=NCCN2)cc1
Censoring qualifier: =
Result: 5.09
//
Compound structure: CC/N=C(\N)Nc1ccc(NC(=O)Nc2ccc(N/C(N)=N/CC)cc2)cc1
Censoring qualifier: <
Result: 4.54
//
Compound structure: CO[N+]1=C(Nc2ccc(NC(=O)c3ccc(NC4=[N+](OC)CCN4)cc3)cc2)NCC1
Censoring qualifier: =
Result: 6.45
//
Compound structure: O=C(Nc1ccc(NC2=[N+]([O-])CCN2)cc1)c1ccc(NC2=[N+]([O-])CCN2)cc1
Censoring qualifier: =
Result: 6.56

###

species: Homo sapiens; assay: Ratio of primary binding constant to secondary binding constant for biotin labelled 5'-CGAATTCGTCTCCGAATTCG-3' hairpin dsDNA (unknown origin) immobilized on biosensor chip by surface plasmon resonance analysis

Compound structure: c1cc(NC2=NCCN2)cc(Nc2ccc(NC3=NCCN3)cc2)c1
Ratio: 100
//
Compound structure: CO[N+]1=C(Nc2ccc(NC(=O)c3ccc(NC4=[N+](OC)CCN4)cc3)cc2)NCC1
Ratio: 100
//
Compound structure: c1cc(NC2=NCCN2)ccc1CCc1ccc(NC2=NCCN2)cc1
Ratio: 5
//
Compound structure: O=C(Nc1ccc(NC2=NCCN2)cc1)c1ccc(NC2=NCCN2)cc1
Ratio: 100

###

species: Homo sapiens; assay: Ratio of primary binding constant to secondary binding constant for biotin labelled 5'-CATATATATCCCCATATATATG-3' hairpin dsDNA (unknown origin) immobilized on biosensor chip by surface plasmon resonance analysis

Compound structure: O=C(Nc1ccc(NC2=[N+]([O-])CCN2)cc1)c1ccc(NC2=[N+]([O-])CCN2)cc1
Ratio: 100

Compound structure: c1cc(NC2=NCCN2)ccc1CCc1ccc(NC2=NCCN2)cc1
Ratio: 5

Compound structure: O=C(Nc1ccc(NC2=NCCN2)cc1)Nc1ccc(NC2=NCCN2)cc1
Ratio: 100

Compound structure: [O-][N+]1=C(Nc2ccc(CCc3ccc(NC4=[N+]([O-])CCN4)cc3)cc2)NCC1
Ratio: 30

Compound structure: CCO[N+]1=C(Nc2ccc(CCc3ccc(NC4=[N+](OCC)CCN4)cc3)cc2)NCC1
Ratio: 100

Compound structure: [O-][N+]1=C(Nc2ccc(Nc3cccc(NC4=[N+]([O-])CCN4)c3)cc2)NCC1
Ratio: 100

Compound structure: O=C(Nc1ccc(NC2=NCCN2)cc1)c1ccc(NC2=NCCN2)cc1
Ratio: 100

Compound structure: c1cc(NC2=NCCN2)cc(Nc2ccc(NC3=NCCN3)cc2)c1
Ratio: 100

Compound structure: CO[N+]1=C(Nc2ccc(NC(=O)c3ccc(NC4=[N+](OC)CCN4)cc3)cc2)NCC1
Ratio: 100

###

assay: Binding affinity to biotin labelled 5'-CGCGCGCGTTTTCGCGCGCG-3' hairpin dsDNA (unknown origin) immobilized on biosensor chip by surface plasmon resonance analysis; design: species or system Homo sapiens; conditions: read-out: Kd
pKd: −log10 of the molar value.

Compound structure: CO[N+]1=C(Nc2ccc(NC(=O)c3ccc(NC4=[N+](OC)CCN4)cc3)cc2)NCC1
pKd: < 5.00

Compound structure: O=C(Nc1ccc(NC2=NCCN2)cc1)c1ccc(NC2=NCCN2)cc1
pKd: < 5.00

Compound structure: CC(C)/N=C(\N)Nc1ccc(NC(=O)c2ccc(N/C(N)=N/C(C)C)cc2)cc1
pKd: < 5.00

Compound structure: CCO[N+]1=C(Nc2ccc(CCc3ccc(NC4=[N+](OCC)CCN4)cc3)cc2)NCC1
pKd: < 4.54

Compound structure: CC/N=C(\N)Nc1ccc(NC(=O)c2ccc(N/C(N)=N/CC)cc2)cc1
pKd: < 5.00

Compound structure: N=C(N)Nc1ccc(NC(=O)c2ccc(NC(=N)N)cc2)cc1
pKd: < 5.00
